Test details: yeast display, Sf9 membrane polyspecificity reagent, FACS + sequencing; frameworks hold sequencing errors
Endpoint label: polyreactivity (PSR sort gate)

// worked examples, polyreactivity (PSR sort gate) included
QVQLQESAGGLEQAGGSLRRICSARCNINSDASMGSYRQAPGKQREHAASTTKGSRTHDAESVKGRLTIRDNAKNTVYLQMNSLKPDDTAVCYSAVTYPYWGDYTYWGQGTQVTVSS : low polyreactivity
QVQLVESGGGLVQAGGSLRLSCAASGSIFNYNDMGWYRQAPGKERELVAAIDSSGTSTYYADSVKGRFTISRDNAKNTVYLQMNSLKPEDTAVYYCNADSSLGFGYWGQGTLVTVSS : low polyreactivity
QVQLVESGGGLVQAGGSLRLSCAASGSTFYYNTLGWYRQAPGKERELVAAISRSGGSTYYADSVKGRFTISRDNAKNTVYLQMNSLKPEDTAVYYCAARIIGARNLYGYWGQGTQVTVSS : high polyreactivity
QVQLVESGGGLVQAGGSLRLSCAASGRIFRNYGMGWYRQAPGKERELVATITWTGGSTFYADSVKGRFTISRDNAKNTVYLQMNSLKPEDTAVYYCAAEWHRLIYFSPRYDFDYWGQGTQVTVSS : low polyreactivity
QDQLVESRGVLVQAGGSLRLSCAAYGRIISPYAMGWYRQAPGKERELVAAISRRGTRTNYADSVKGRFTLSRDKAKNTVYLQMNSLKPVDTAVYYCNKTPLLRWGQGTQVSVSS : high polyreactivity
QVQLVESGGGLVQAGGSLRLSCAASGSTFYVYDMGWYRQAPWKERELVAAISSGAGSTYYADSVKGRFTSSRDNAKNTVYLKLNSLKRKIPRSITALLFTVNGGGSRSHDYWAQGTQVTVSS : low polyreactivity

Consider the sequence "QVQLVESGGGLVQAGGSLRLSCASSGFTFYTNDMGWDRQAPGKERELVAAITWSGGSTYYADSVKGRFTISRDNAKNTVYFQMNSLKPEDTAVYYCAASIGQVTQRRYGTRYYYWGQGTQVTVSS" and give its measured polyreactivity (PSR sort gate). high polyreactivity

Consider the sequence "RVQLVESGGGLVQAGGSLRLSCAASGSTFENYAMGWYRQAPGKERELVAAISSGGSTYYADSVKGRFTISRDNAKNTVYLQMNSLKPEDTAVYYCAAELEYWLYGYGYYYWGQGTQVTVSS" and give its measured polyreactivity (PSR sort gate). high polyreactivity

Consider the sequence "QVQLVESGGGLVQAGGSLRLSSAASGSTFHNYAMRWSRQAPGNEREWVASIRLIGGSTYYADSVKGRFTISRDNAKNTVYLQMNSLKPEDTAVYYCAATSTDRSYLEYDYWGQGTQVTVSS" and give its measured polyreactivity (PSR sort gate). low polyreactivity

Consider the sequence "QVQLVESGGGLVQAGGSLRLSCAASGSIFIPYAMGWYRQAPGKETELVAAISSSGSSYYADSVKGRFTISRDNAKNTVYLQMNSLKPEDTAVYYCAAERHYSYSSYDYWGQGTQVTVSS" and give its measured polyreactivity (PSR sort gate). low polyreactivity

Consider the sequence "QVKLVESGGGLVQAGGSLRLSCPASGSIFYRNTMGWYRQEPGKERELVASITSGSSTFYADSVKGRFTISRDNAKNTVYLQMNSLKAEDTAVYYCAKRRGSPGFRFRAGGAYGYWGQGTQVTVSS" and give its measured polyreactivity (PSR sort gate). low polyreactivity
